assay: Half life in Sprague-Dawley rat at 1 mg/kg, iv; type: ADME, organism-based; conditions: in vivo
Metric: half-life (min)
A number alone suffices; assume min.

Task: Value lookup for half-life; key = C#C[C@]1(CO)O[C@@H](n2cnc3c(N)nc(F)nc32)C[C@@H]1O [ISLATRAVIR]
Output: 42

Task: Which measured half-life value corresponds to `C#C[C@]1(CO)C[C@@H](n2cnc3c(=O)[nH]c(N)nc32)C[C@@H]1O` ?
Output: 588

----------
assay: AUC (0 to infinity) in Sprague-Dawley rat at 2 mg/kg, po; format: ADME, organism-based; design: dose 2 mg/kg, time infinity, route oral; conditions: in vivo
Metric: AUC(0-inf)
Put down the number, then write its unit next to it.

Task: Fill in the blank: the reported AUC(0-inf) of `C#C[C@]1(CO)C[C@@H](n2cnc3c(=O)[nH]c(N)nc32)C[C@@H]1O` is ____.
Output: 3.3 µM·h

----------
assay: Clearance in Sprague-Dawley rat at 1 mg/kg, iv; assay type: ADME, organism-based; details: in vivo
I'd be grateful if you could share measured clearance for these entries.
Could you give me the number in mL/min/kg? Just the number is fine.

Task: Using the record for `C#C[C@]1(CO)C[C@@H](n2cnc3c(=O)[nH]c(N)nc32)C[C@@H]1O` , report its clearance.
Output: 32.4

Task: Entry `C#C[C@]1(CO)O[C@@H](n2cnc3c(N)nc(F)nc32)C[C@@H]1O` : reported clearance = ?
Output: 72

----------
experiment: Cytotoxicity in human MT4 cells expressing GFP assessed as reduction in cell viability incubated for 48 hrs by cell-titer-Glo luminescent cell viability assay; format: cell-based
Metric: CC50 at 48 h

Task: Requested field: CC50 at 48 h. Item: `C#C[C@]1(CO)C[C@@H](n2cnc3c(=O)[nH]c(N)nc32)C[C@@H]1O`
Output: > 42 µM

Task: Request the reported CC50 at 48 h associated with `C#C[C@]1(CO)O[C@@H](n2cnc3c(N)nc(F)nc32)C[C@@H]1O`
Output: > 4.2 µM

Task: Need CC50 at 48 h of N#CC1(CO)CC(n2cnc3c(=O)[nH]c(N)nc32)CC1O (racemic) , thanks.
Output: > 42 µM

Task: Could you tell me which CC50 at 48 h is on file for N#CC1(CO)CC(n2cnc3c(N)nc(F)nc32)CC1O (racemic) ?
Output: > 42 µM

Task: // returns reported CC50 at 48 h for input `Nc1ccn([C@@H]2CS[C@H](CO)O2)c(=O)n1`
Output: > 42 µM

Task: Item C#CC1(CO)CC(n2cnc3c(=O)[nH]c(N)nc32)CC1O (racemic) has what recorded CC50 at 48 h?
Output: > 42 µM

----------
Would you mind telling me the reported IC50 of each entry?
Please give a number only; it is taken to be in nM.

Task: Please state recorded IC50 (tested on Human immunodeficiency virus type 1 reverse transcriptase (Human immunodeficiency virus 1)) of C#CC1(COP(=O)(O)OP(=O)(O)OP(=O)(O)O)CC(n2cnc3c(=O)[nH]c(N)nc32)CC1O (racemic)
Output: 324

Task: Kindly state the measured IC50 obtained for C#CC1(COP(=O)(O)OP(=O)(O)OP(=O)(O)O)CC(n2cnc3c(N)nc(F)nc32)CC1O (racemic) with Human immunodeficiency virus type 1 reverse transcriptase (Human immunodeficiency virus 1).
Output: 3460

Task: Item: C#CC1(COP(=O)(O)OP(=O)(O)OP(=O)(O)O)CC(n2cc(C)c(=O)[nH]c2=O)CC1O (racemic) Test system: Human immunodeficiency virus type 1 reverse transcriptase (Human immunodeficiency virus 1) Read-out: IC50 Value: ?
Output: 114

Task: Human immunodeficiency virus type 1 reverse transcriptase (Human immunodeficiency virus 1) / IC50 / Nc1ccn([C@@H]2CS[C@H](COP(=O)(O)OP(=O)(O)OP(=O)(O)O)O2)c(=O)n1 [LAMIVUDINE TRIPHOSPHATE] : value?
Output: 15
